Tgt: T1, monkey CD19 on HEK293T-monkey CD19 cells (monkey)
T1 construct: whole, on cells
Assay Details: FACS on HEK293T-monkey CD19 cells
Attribute Measured: Maximum mean fluorescence intensity
When you answer, write just the number.

Worked cases, answers included:
F4.272.13 (antibody, human IgG1, V domains shown, human-murine chimeric antibody, human IgG1) VH: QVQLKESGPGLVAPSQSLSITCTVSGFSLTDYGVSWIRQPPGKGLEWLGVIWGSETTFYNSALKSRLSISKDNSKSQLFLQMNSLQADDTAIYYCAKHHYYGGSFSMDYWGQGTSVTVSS VL: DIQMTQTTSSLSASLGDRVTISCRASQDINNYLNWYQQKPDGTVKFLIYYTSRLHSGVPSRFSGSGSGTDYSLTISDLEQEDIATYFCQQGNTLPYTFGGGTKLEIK    40500
F3.133.14 (antibody, human IgG1, V domains shown, human-murine chimeric antibody, human IgG1) VH: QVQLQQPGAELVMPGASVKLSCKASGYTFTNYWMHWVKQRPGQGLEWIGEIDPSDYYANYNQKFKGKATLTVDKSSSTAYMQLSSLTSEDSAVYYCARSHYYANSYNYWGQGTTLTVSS VL: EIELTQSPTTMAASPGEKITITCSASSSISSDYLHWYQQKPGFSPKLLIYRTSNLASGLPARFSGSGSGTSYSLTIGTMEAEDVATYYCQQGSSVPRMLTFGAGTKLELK    138000

// next item, Maximum mean fluorescence intensity requested
What does the record list as Maximum mean fluorescence intensity for F3.40.14 (antibody, human IgG1, V domains shown, human-murine chimeric antibody, human IgG1) VH: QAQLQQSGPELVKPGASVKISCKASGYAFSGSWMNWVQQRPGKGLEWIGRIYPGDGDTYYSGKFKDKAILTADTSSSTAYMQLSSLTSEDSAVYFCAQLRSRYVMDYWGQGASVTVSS VL: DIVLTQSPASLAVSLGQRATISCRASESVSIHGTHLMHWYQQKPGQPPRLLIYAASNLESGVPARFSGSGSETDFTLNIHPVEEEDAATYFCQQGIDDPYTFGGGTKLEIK ?
281
